The measured values listed here are drawn from DBAASP.

System: Listeria innocua | Read-out: MIC
Return type: number; implicit unit µM.

>>> result("CC(C)C[C@H](NC(=O)[C@@H](N)Cc1ccccc1)C(=O)N[C@@H](CO)C(=O)N[C@@H](Cc1ccccc1)C(=O)N1CCC[C@H]1C(=O)N[C@H](C(=O)N[C@H](C(=O)N[C@@H](CCCCN)C(=O)N[C@H](C(=O)N[C@@H](Cc1ccc(O)cc1)C(=O)N[C@@H](Cc1ccccc1)C(=O)N1CCC[C@H]1C(=O)N[C@@H](Cc1cnc[nH]1)C(=O)O)[C@@H](C)O)[C@@H](C)O)[C@@H](C)O")
1

Given the entry `CC[C@H](C)[C@H](NC(=O)[C@@H](NC(=O)[C@H](C)NC(=O)[C@H](C)NC(=O)[C@@H](NC(=O)[C@H](CCCCN)NC(=O)[C@H](CCCCN)NC(=O)[C@@H](NC(=O)[C@@H](NC(=O)[C@H](C)NC(=O)[C@H](Cc1ccccc1)NC(=O)[C@H](CC(C)C)NC(=O)[C@@H](N)CCCCN)C(C)C)[C@@H](C)CC)C(C)C)C(C)C)C(=O)N[C@@H](CCCN=C(N)N)C(=O)N[C@@H](CCCN=C(N)N)C(=O)N[C@@H](CC(C)C)C(N)=O` , what MIC was observed with Listeria innocua?
27.4

----------
system: Escherichia coli
Measured Quantity: MIC

Given the entry CC(C)C[C@H](NC(=O)CNC(=O)[C@H](Cc1ccccc1)NC(=O)[C@@H](NC(=O)[C@H](CO)NC(=O)[C@@H]1CCCN1C(=O)[C@@H](NC(=O)[C@@H](NC(=O)[C@H](CCCCN)NC(=O)[C@H](CO)NC(=O)[C@H](C)NC(=O)[C@H](CC(C)C)NC(=O)[C@H](CCCCN)NC(=O)[C@H](Cc1ccccc1)NC(=O)[C@@H](NC(=O)[C@H](C)NC(=O)[C@@H]1CCCN1C(=O)[C@@H](N)CC(C)C)C(C)C)C(C)C)C(C)C)C(C)C)C(=O)N[C@H](C(=O)N[C@@H](CCCCN)C(=O)O)C(C)C [LPAVFKLASKVVPSVFGLVK] , what MIC was observed with Escherichia coli?
> 122 µM

----------
The entries below come with measured MIC values attached.
tested on: Escherichia coli K88
Return type: number; implicit unit µM.

>>> result("CC[C@H](C)[C@H](NC(=O)[C@H](Cc1c[nH]c2ccccc12)NC(=O)[C@H](CCCCN)NC(=O)[C@H](Cc1c[nH]c2ccccc12)NC(=O)[C@@H](NC(=O)[C@H](CCCCN)NC(=O)CNC(=O)[C@@H](NC(=O)[C@H](CCCCN)NC(=O)[C@H](CCCCN)NC(=O)[C@H](Cc1c[nH]c2ccccc12)NC(=O)[C@@H](N)CCCN=C(N)N)[C@@H](C)CC)C(C)C)C(N)=O")
2
>>> result("CC(C)C[C@H](NC(=O)CNC(=O)[C@H](CC(C)C)NC(=O)[C@H](Cc1c[nH]c2ccccc12)NC(=O)[C@H](CC(C)C)NC(=O)CNC(=O)[C@H](CC(C)C)NC(=O)[C@H](CCCN=C(N)N)NC(=O)[C@@H](N)CCCN=C(N)N)C(=O)N[C@@H](CCCN=C(N)N)C(=O)N[C@@H](CCCN=C(N)N)C(N)=O")
2

Please look at the following molecule next.
Given the entry `CC[C@H](C)[C@H](NC(=O)[C@H](CCCCN)NC(=O)[C@@H](NC(=O)[C@@H](N)Cc1c[nH]c2ccccc12)[C@@H](C)CC)C(=O)N[C@@H](Cc1c[nH]c2ccccc12)C(=O)N[C@@H](CCCCN)C(=O)N[C@@H](CCCCN)C(=O)N[C@H](C(=O)N[C@H](C(=O)N[C@@H](CCCCN)C(=O)N[C@@H](CCCCN)C(=O)N[C@@H](Cc1c[nH]c2ccccc12)C(=O)N[C@@H](CCCCN)C(=O)N[C@@H](CCCCN)C(=O)O)[C@@H](C)CC)[C@@H](C)CC` , what MIC was observed with Escherichia coli K88?
8

----------
tested on: Staphylococcus aureus ATCC 25923
Measured Quantity: MIC (µM)
Return type: number; implicit unit µM.

// known answers, use as guide
>>> result("C[C@H](NC(=O)[C@H](Cc1c[nH]c2ccccc12)NC(=O)[C@H](CCCN=C(N)N)NC(=O)[C@@H](N)Cc1ccc(O)cc1)C(=O)N[C@@H](CCCN=C(N)N)C(=O)N[C@@H](Cc1c[nH]c2ccccc12)C(=O)N[C@@H](Cc1c[nH]c2ccccc12)C(=O)N[C@@H](CCCN=C(N)N)C(=O)N[C@@H](CCCN=C(N)N)C(N)=O")
3.48
>>> result("CC[C@H](C)[C@H](N)C(=O)N[C@@H](CC(C)C)C(=O)NCC(=O)N[C@H](C(=O)N[C@H](C(=O)N[C@@H](CC(C)C)C(=O)NCC(=O)N[C@@H](CC(C)C)C(=O)N[C@@H](CC(C)C)C(=O)N[C@@H](CCCCN)C(=O)N[C@H](C(=O)N[C@@H](CC(C)C)C(N)=O)[C@@H](C)O)[C@@H](C)CC)[C@@H](C)O")
8

Using the record for `CC(C)C[C@H](NC(=O)[C@H](CCCCN)NC(=O)[C@H](CCCN=C(N)N)NC(=O)[C@H](Cc1ccccc1)NC(=O)[C@H](Cc1ccccc1)NC(=O)[C@H](CCCCN)NC(=O)[C@H](CCCCN)NC(=O)[C@H](Cc1ccccc1)NC(=O)[C@H](CCCN=C(N)N)NC(=O)[C@H](CCCCN)NC(=O)[C@@H](N)C(C)C)C(=O)N[C@@H](CCCCN)C(=O)N[C@@H](CCCCN)C(=O)N[C@@H](CO)C(N)=O` , report its MIC.
2.17

----------
test system: Acinetobacter baumannii ATCC 19606
Measured Quantity: MIC

>>> result("C[C@H](NC(=O)[C@@H]1CCCN1C(=O)[C@H](CCCN=C(N)N)NC(=O)[C@H](Cc1ccc(O)cc1)NC(=O)CNC(=O)[C@H](CC(N)=O)NC(=O)[C@@H](N)CO)C(=O)N[C@@H](Cc1ccc(O)cc1)C(=O)N[C@@H](CCCN=C(N)N)C(=O)N1CCC[C@H]1C(=O)N[C@@H](C)C(=O)N[C@@H](Cc1ccc(O)cc1)C(=O)N[C@@H](CCCN=C(N)N)C(=O)N1CCC[C@H]1C(=O)N[C@@H](CO)C(=O)N[C@@H](Cc1ccc(O)cc1)C(=O)N[C@@H](CCCN=C(N)N)C(=O)N1CCC[C@H]1C(N)=O")
"> 32 µM"
>>> result("CC(C)C[C@H](NC(=O)[C@@H](NC(=O)[C@H](CCCN=C(N)N)NC(=O)[C@H](CO)NC(=O)[C@H](CC(C)C)NC(=O)[C@H](C)NC(=O)[C@H](CC(N)=O)NC(=O)CNC(=O)[C@H](CC(C)C)NC(=O)[C@H](C)NC(=O)CNC(=O)[C@H](CC(C)C)NC(=O)[C@@H](N)Cc1ccccc1)C(C)C)C(N)=O")
"> 64 µM"
>>> result("CC[C@H](C)[C@H](N)C(=O)N[C@H](C(=O)NCC(=O)N1CCC[C@H]1C(=O)N[C@H](C(=O)N[C@@H](CC(C)C)C(=O)NCC(=O)N[C@@H](CC(C)C)C(=O)N[C@H](C(=O)NCC(=O)N[C@@H](CO)C(=O)N[C@@H](C)C(=O)N[C@@H](CC(C)C)C(=O)NCC(=O)NCC(=O)N[C@@H](CC(C)C)C(=O)N[C@@H](CC(C)C)C(=O)N[C@@H](CCCCN)C(=O)N[C@@H](CCCCN)C(=O)N[C@H](C(N)=O)[C@@H](C)CC)C(C)C)C(C)C)[C@@H](C)CC")
"12.5 µM"
>>> result("NCC(=O)N[C@@H](CCCN=C(N)N)C(=O)N[C@@H](Cc1c[nH]c2ccccc12)C(=O)N[C@@H](Cc1c[nH]c2ccccc12)C(=O)N[C@@H](Cc1c[nH]c2ccccc12)C(=O)N[C@@H](CCCN=C(N)N)C(=O)NCC(N)=O")
"> 128 µM"

Please look at the following compound next.
Using the record for `CC[C@H](C)[C@H](NC(=O)[C@H](CCCN=C(N)N)NC(=O)[C@@H](N)Cc1c[nH]c2ccccc12)C(=O)N[C@@H](CCCN=C(N)N)C(=O)N[C@@H](CCCN=C(N)N)C(=O)N[C@@H](CCCN=C(N)N)C(=O)N[C@@H](Cc1c[nH]c2ccccc12)C(=O)N1CCC[C@H]1C(=O)N[C@@H](CCCN=C(N)N)C(=O)N[C@@H](CC(C)C)C(=O)N1CCC[C@H]1C(=O)N[C@@H](CCCN=C(N)N)C(=O)N1CCC[C@H]1C(=O)N[C@@H](CCCN=C(N)N)C(=O)N[C@@H](Cc1c[nH]c2ccccc12)C(=O)N[C@@H](CCCN=C(N)N)C(=O)O` , report its MIC.
4 µM

----------
system: Staphylococcus aureus ATCC 25923
Measured Quantity: MIC (µM)
Return type: number; implicit unit µM.

Given the entry `CC[C@H](C)[C@H](NC(=O)[C@H](CCCCN)NC(=O)[C@H](CCCCN)NC(=O)[C@H](Cc1ccccc1)NC(=O)[C@H](CC(C)C)NC(=O)[C@H](CCCCN)NC(=O)[C@H](CCCCN)NC(=O)[C@H](CC(C)C)NC(=O)[C@H](CCCN=C(N)N)NC(=O)[C@H](CCCCN)NC(=O)[C@H](C)N)C(=O)N[C@@H](Cc1c[nH]c2ccccc12)C(=O)N[C@@H](CC(N)=O)C(=O)N[C@@H](Cc1c[nH]c2ccccc12)C(=O)N[C@@H](CCCCN)C(N)=O` , what MIC was observed with Staphylococcus aureus ATCC 25923?
2
